# Test system: COLO 205
# test-name: NCI tumour cell line growth inhibition, 48 h
Activity calls are given as the source filed them. No stated cut-off is given here; in the data, active = GI50 up to about 1.1 µM and inactive = higher. Peptide text beside a SMILES is read from it. * marks the point of attachment. Boc = CC(C)(C)OC(=O)*; OtBu = CC(C)(C)O*
Lab note: assign the record to one of active, inactive

Ask: Would you mind telling me which call this test gave N=C1OC(c2cccc(Cl)c2)C(NNS(=O)(=O)c2ccccc2)=C1O (configuration not stated) ?
Reply: inactive

Ask: Next record, please: CNc1ccc(C(=O)CC(O)CCC(C)C2OC(=O)CC(O)CC(=O)CC(O)CC(O)CC(O)CC(O)CC3(O)CC(O)C(C(=O)N4CCOCC4)C(CC(OC4OC(C)C(O)C(N)C4O)\C=C/C=C\C=C/C=C/C=C/C=C\C=C/C2C)O3)cc1 (configuration not stated)
Reply: active

Ask: Next record, please: N=C(N)SCc1ccc(N=C=S)cc1
Reply: inactive

Ask: Next record, please: CC(C)(C)OC(=O)CC(NC(=O)OC(C)(C)C)C(=O)NC(Cc1ccccc1)C(N)=O (configuration not stated) (Boc-Asp(OtBu)-Phe-NH2; configuration not given here)
Reply: inactive

Ask: Next record, please: CCN1c2ccccc2-n2c(C)nnc2-c2c(-c3ccccc3)n[nH]c21
Reply: inactive

Ask: Next record, please: O=C1C=CC(=O)C2C1Cc1ccccc1C2c1ccccc1 (configuration not stated)
Reply: inactive

Ask: Next record, please: CC(=O)OC12c3ccccc3-c3ccccc3C1C(C(=O)O)C2C(=O)O (configuration not stated)
Reply: inactive

Ask: Next record, please: CCOC(=O)C1=C(C)N(CC(C)C)C2(O)C(OC)CC(=O)C3C(=O)N(c4ccccc4)C(=O)C132 (configuration not stated)
Reply: inactive

Ask: Next record, please: CC(C)(C)c1cc(/C=C(\C#N)C2=NCCO2)cc(C(C)(C)C)c1O
Reply: inactive

Ask: Next record, please: Cc1ccc2c(c1C)-c1c(ccc(C)c1C)C(=O)C2=O
Reply: inactive

Ask: Next record, please: CSc1nc2c(c(O)c(C)c(=O)n2C2OC(COC(C)=O)C(OC(C)=O)C(OC(C)=O)C2OC(C)=O)c(=O)n1C (configuration not stated)
Reply: inactive

Ask: Next record, please: O=[N+]([O-])C(=C(Nc1ccccc1)Nc1ccccc1)C(Cl)=C(Cl)Cl
Reply: inactive

Ask: Next record, please: N=C(N)SCc1cn2ccccc2n1
Reply: inactive

Ask: Next record, please: CSc1ccc(-c2cc(-c3nc4ccccc4[nH]3)nc(N)c2C#N)cc1
Reply: inactive

Ask: Next record, please: CC1(C=O)C(=O)CCC2(C)C3CC(=O)OC3CCC12 (configuration not stated)
Reply: inactive

Ask: Next record, please: CN(C)S(=O)(=O)n1ccnc1
Reply: inactive

Ask: Next record, please: Cc1cn(C2OC(CO[Si](C)(C)C(C)(C)C)/C(=C\C#N)C2O[Si](C)(C)C(C)(C)C)c(=O)[nH]c1=O (configuration not stated)
Reply: inactive

Ask: Next record, please: CC1(c2nc3cc(Cl)c(Cl)cc3[nH]2)CCC(C(=O)O)C(C)(C)O1 (configuration not stated)
Reply: inactive

Ask: Next record, please: CCCOC(=O)NC(C)C(=O)NC(CCC(=O)NC(CCCC(N)C(=O)O)C(=O)NC(C)C(=O)O)C(=O)O (configuration not stated)
Reply: inactive

Ask: Next record, please: N=c1nc(N)c2cc3c(N)nc(=N)c3cc12
Reply: inactive

Ask: Next record, please: C/C=C(\C)C(=O)OC1CC(OC(C)=O)C2(C(=O)OC)COC3C2C1(C)C1C2(C(=O)OC)OCC1(C3O)C1(O)C3CC(C4(O)C=COC4O3)C1(C)O2 (configuration not stated)
Reply: inactive

Ask: Next record, please: Cc1cc(NS(=O)(=O)c2ccc(NC(=O)c3cccc4c(NNc5ccc(S(=O)(=O)N=C(N)N)cc5)c5ccccc5nc34)cc2)no1
Reply: inactive

Ask: Next record, please: O=C1NC(O)CCN1C1CC(O)C(CO)O1 (configuration not stated)
Reply: inactive

Ask: Next record, please: CN(C)CCNc1nc2ccccc2c2c1CCCC2
Reply: inactive

Ask: Next record, please: COc1ccccc1/C=C1\CCC(Cc2ccccc2)(CN(C)C)C1=O (configuration not stated)
Reply: inactive

Ask: Next record, please: COc1cc(OC)cc(OCc2nc3cc(C(F)(F)F)ccc3nc2-c2ccccc2)c1
Reply: inactive

Ask: Next record, please: CCc1ccc(CCC(=O)O)nc1
Reply: inactive

Ask: Next record, please: Cc1c(/C=N/NC(=O)c2ccc(Cl)cc2)c(=O)n(-c2ccccc2)n1C
Reply: inactive

Ask: Next record, please: N#CCN1CCN(CC#N)CCN(CC#N)CCN(CC#N)CC1
Reply: inactive

Ask: Next record, please: CC(CN(C)C)/C(=N\Nc1ccccc1)c1ccccc1 (configuration not stated)
Reply: active

Ask: Next record, please: O=C1OC(c2ccc([N+](=O)[O-])cc2)=N/C1=C\c1ccc(O)cc1
Reply: inactive

Ask: Next record, please: O=C1OC2(c3ccccc3Oc3ccccc32)c2ccccc21
Reply: inactive

Ask: Next record, please: OCC1CCCC1O (configuration not stated)
Reply: inactive

Ask: Next record, please: c1ccc(CCN2CCCCCC2)nc1
Reply: inactive

Ask: Next record, please: COC(=O)C1C(=O)CC2CCCCC21 (configuration not stated)
Reply: inactive

Ask: Next record, please: Cc1occc1C(=S)Nc1ccc(Cl)c(/C=N/OC(C)(C)C)c1
Reply: inactive

Ask: Next record, please: O=P1(Oc2ccccc2)N(CCCl)CCN1c1ccccc1 (configuration not stated)
Reply: inactive

Ask: Next record, please: Cn1cnc2c(NCc3ccccc3)nc(NCCO)nc21
Reply: inactive

Ask: Next record, please: CN(C)c1ccc(/N=N/c2ccncc2)cc1
Reply: inactive

Ask: Next record, please: c1ccc(CCN2CCc3[nH]c4ccccc4c3C2)cc1
Reply: inactive

Ask: Next record, please: CC(C)c1ccc(/C=C2\CSCC3=C2N=C2SCC(=O)N2C3c2ccc(C(C)C)cc2)cc1 (configuration not stated)
Reply: inactive

Ask: Next record, please: CC(C)N(C(=O)c1ccc(NCc2cc(O)ccc2O)cc1)C(C)C
Reply: inactive

###

# Tested on: OVCAR-5
# test-name: NCI tumour cell line growth inhibition, 48 h
Calls of active or inactive are those of the source. No stated cut-off is given here; in the data, active = GI50 up to about 1.1 µM and inactive = higher. Peptide text beside a SMILES is read from it. * marks the point of attachment. Boc = CC(C)(C)OC(=O)*; OtBu = CC(C)(C)O*
Assign GI50 to each entry below.

Ask: Which GI50 value is on record for O=C1OC(c2ccc([N+](=O)[O-])cc2)=N/C1=C\c1ccc(O)cc1 ?
Reply: > 100 µM (inactive)

Ask: Next record, please: Cc1cccnc1N/C=C1\C(=O)NC(=O)N(C)C1=O
Reply: > 100 µM (inactive)

Ask: Next record, please: NCCCCCCNCc1cccc2ccccc12
Reply: > 100 µM (inactive)

Ask: Next record, please: CCOC(=O)NC(Nc1ncccn1)(C(F)(F)F)C(F)(F)F
Reply: > 100 µM (inactive)

Ask: Next record, please: C=CC(OC(C)=O)c1ccc(OC(=O)C(C)C)c(OC)c1 (stereo not given)
Reply: 2.51 µM (inactive)

Ask: Next record, please: Cc1nc(O)nc(O)c1/C=C/C(=O)O
Reply: > 891 µM (inactive)

Ask: Next record, please: C=C1CC2(C)CCC(OC(=O)C3(C)OC3C)C(C)(OC(C)=O)C2CC1=C(C)C (stereo not given)
Reply: > 100 µM (inactive)

Ask: Next record, please: CN(C)c1ccc(Cc2cc(C(C)(C)C)cc(C(C)(C)C)c2O)cc1
Reply: 6.27 µM (inactive)

Ask: Next record, please: C(=C\c1ccc2ccccc2c1Nc1ccccc1)/c1ccccc1
Reply: > 100 µM (inactive)

Ask: Next record, please: CN(C)C(=S)Oc1ccc2ccc(=O)oc2c1
Reply: > 100 µM (inactive)

Ask: Next record, please: CC(=O)Nc1ccc2c(c1)C(=O)c1cccc(F)c1-2
Reply: 80.9 µM (inactive)

Ask: Next record, please: CC(=O)c1c(-c2ccco2)c(C#N)c(=S)n(C2OC(CO)C(O)C(O)C2O)c1-c1ccccc1 (stereo not given)
Reply: > 100 µM (inactive)

Ask: Next record, please: O=[N+]([O-])c1ccc(-c2csc3nc(-c4ccccc4)nn23)cc1
Reply: > 100 µM (inactive)

Ask: Next record, please: COc1cc(C23OCC(Cc4cc5c(cc42)OCO5)C3CO)cc(OC)c1OC (stereo not given)
Reply: 6.81 µM (inactive)

Ask: Next record, please: O=C(O)COc1ccc(C(=O)/C(SS/C(C(=O)c2ccc(OCC(=O)O)c(Cl)c2Cl)=C2\C=C(c3ccc(Cl)cc3)SS2)=C2/C=C(c3ccc(Cl)cc3)SS2)c(Cl)c1Cl
Reply: 30.1 µM (inactive)

Ask: Next record, please: O=P(O)(O)C(N=C(Nc1ccccc1)Nc1ccccc1)P(=O)(O)O
Reply: > 100 µM (inactive)

Ask: Next record, please: CCOc1ncn(-c2ccc(NC(=S)Nc3ncccn3)cc2)n1
Reply: 54.8 µM (inactive)

Ask: Next record, please: O=C1/C(=C\c2cccc(Oc3ccccc3)c2)S(=O)(=O)C(c2ccccc2)N1c1ccccc1Cl (stereo not given)
Reply: 33.7 µM (inactive)

Ask: Next record, please: Cc1ccc(Nc2nc3ccccc3c(=O)n2N)cc1
Reply: > 100 µM (inactive)

Ask: Next record, please: OCC1C(O)C(O)[C@@H]2SCCN12 (stereo not given in full)
Reply: > 100 µM (inactive)

Ask: Next record, please: CC(C)(C)OC(=O)CC(NC(=O)OC(C)(C)C)C(=O)NC(Cc1ccccc1)C(N)=O (stereo not given) (Boc-Asp(OtBu)-Phe-NH2; configuration not given here)
Reply: > 100 µM (inactive)

Ask: Next record, please: Cc1c(C)c(C)c(CC2(C)CSC2)c(CC2(C)CSC2)c1C
Reply: > 100 µM (inactive)

Ask: Next record, please: Cc1ccc(S(=O)(=O)NC(=O)Nc2cccc(S(N)(=O)=O)c2)cc1
Reply: > 100 µM (inactive)

Ask: Next record, please: Cc1ccc2c(c1C)-c1c(ccc(C)c1C)C(=O)C2=O
Reply: 1.55 µM (inactive)

Ask: Next record, please: COc1cc(/C=C2\N=C(c3ccccc3)N(c3nc4cc(C)c(C)cc4s3)C2=O)ccc1O
Reply: 40.6 µM (inactive)

Ask: Next record, please: O=C1CN(/N=C/c2ccc(-c3ccc(F)cc3)o2)C(=O)N1
Reply: > 100 µM (inactive)

Ask: Next record, please: Cc1cc(N(CCOS(C)(=O)=O)CCOS(C)(=O)=O)ccc1/C=N/c1ccc(-c2csc(-c3ccc(Br)cc3)n2)cc1
Reply: 17.3 µM (inactive)

Ask: Next record, please: Cc1ccc(C2SC(=N)Nc3c2c(C)nn3C(=O)c2ccccc2O)cc1 (stereo not given)
Reply: > 10 µM (inactive)

Ask: Next record, please: O=[N+]([O-])C(=C(N1CCCCC1)N1CCCCC1)/C(Cl)=C(\Cl)[N+](=O)[O-]
Reply: 17.9 µM (inactive)

Ask: Next record, please: C/C(=N/NC(=S)NCCc1ccccn1)c1cnccn1
Reply: 79.3 µM (inactive)
